measuredTarget: HLA-B*44:05 (Homo sapiens, UniProt P01889, A223V/A65T/A93T/A95T/D201E/D98Y/E176V/E187L/E204Q/E69K/G107R/H137Y/K202T/L105A/L119I/N104T/N87E/Q56L/Q94N/R106L/R155S/R180D/S101N/S121R/S35A/S48T/T118I/V36M/W191S/Y91S)
experimentalDetails: MHC binding assay (UV-ligand exchange, beta2m ELISA)
conditionDetails: binding to HLA-B*44:05, ranged by peptide exchange yield
observable: Peptide exchange

substance="78 (DETIWYVRF) [compound 78]" observable="Peptide exchange" recordedmeasurement="++++ (≥75% = ++++)"
substance="44 (KENQDHSYSL) [compound 44]" observable="Peptide exchange" recordedmeasurement="++++ (≥75% = ++++)"
substance="112 (AEFFDYTVRTL) [compound 112]" observable="Peptide exchange" recordedmeasurement="++++ (≥75% = ++++)"
substance="8 (AQDTTYLWW) [compound 8]" observable="Peptide exchange" recordedmeasurement="++++ (≥75% = ++++)"
substance="73 (DESKYTWSW) [compound 73]" observable="Peptide exchange" recordedmeasurement="++++ (≥75% = ++++)"
substance="27 (DEAVRDITW) [compound 27]" observable="Peptide exchange" recordedmeasurement="++++ (≥75% = ++++)"
substance="113 (TDFTKIASF) [compound 113]" observable="Peptide exchange" recordedmeasurement="++++ (≥75% = ++++)"
substance="42 (AERDLDVTI) [compound 42]" observable="Peptide exchange" recordedmeasurement="++++ (≥75% = ++++)"
substance="46 (KEVDDTLLVNEL) [compound 46]" observable="Peptide exchange" recordedmeasurement="++++ (≥75% = ++++)"
substance="32 (RDATASLW) [compound 32]" observable="Peptide exchange" recordedmeasurement="++++ (≥75% = ++++)"
substance="75 (QEVDISLHY) [compound 75]" observable="Peptide exchange" recordedmeasurement="++++ (≥75% = ++++)"
substance="111 (GEYRCQTDL) [compound 111]" observable="Peptide exchange" recordedmeasurement="++++ (≥75% = ++++)"
substance="108 (DETHTLQF) [compound 108]" observable="Peptide exchange" recordedmeasurement="++++ (≥75% = ++++)"
substance="77 (KPREEQYDSTY) [compound 77]" observable="Peptide exchange" recordedmeasurement="++++ (≥75% = ++++)"
substance="110 (AESLAVHDI) [compound 110]" observable="Peptide exchange" recordedmeasurement="+++ (≥50% = +++)"
substance="74 (LENMYDLTF) [compound 74]" observable="Peptide exchange" recordedmeasurement="++++ (≥75% = ++++)"
substance="109 (DETAAYKIM) [compound 109]" observable="Peptide exchange" recordedmeasurement="+++ (≥50% = +++)"
substance="15 (TEGDFTKEASTY) [compound 15]" observable="Peptide exchange" recordedmeasurement="+++ (≥50% = +++)"
